System: CYPSE (Flatsedge)
Assay: Postemergence weed control under flooded paddy conditions
Assay type: in vivo, Cyperus serotinus
Settings: Rate 0.0313 kg/ha, postemergence weeds, rated 3 to 4 weeks after treatment
endpoint_label: Herbicidal rating CYPSE
Lab note: jot down the number only; don't add units.

// lookup Herbicidal rating CYPSE | system=CYPSE (Flatsedge) | key= CC(C)S(=O)(=O)NC(=O)CC1SC(=Nc2cc(-n3c(=O)cc(C(F)(F)F)n(C)c3=O)c(F)cc2Cl)N(C)C1=O (centres unmarked)
0.0

Here is the next molecule: C#CCOC(=O)CC1SC(=Nc2cc(-n3c(=O)cc(C(F)(F)F)n(C)c3=O)c(F)cc2Cl)N(C)C1=O (centres unmarked)
0.0

Here is the next molecule: `C[C@H](C(=O)O)N1C(=O)CSC1=Nc1cc(-n2c(=O)cc(C(F)(F)F)n(C)c2=O)c(F)cc1Cl`
0.0

Here is the next molecule: `COC(=O)[C@@H](Cc1ccccc1)N1C(=O)CSC1=Nc1cc(-n2c(=O)cc(C(F)(F)F)n(C)c2=O)c(F)cc1Cl`
0.0

Here is the next molecule: C=CCN1C(=O)C(CC(=O)NS(=O)(=O)c2ccccc2)SC1=Nc1cc(-n2c(=O)cc(C(F)(F)F)n(C)c2=O)c(F)cc1Cl (centres unmarked)
0.0
